METHOD_NOTES: Pharmacokinetic assay in Balb/c mice (plasma and brain tissue)
Type: in vivo
ASSAY_SETUP: mouse, po; plasma, 5 mg/kg p.o., male Balb/c mice; read-out: Area under curve AUC0-∞
Values of AUC(0-inf) greater than or equal to 4000 ng·h/mL map to Met; values below map to Not met.

Quick check, AUC(0-inf) >= 4000 ng·h/mL? CC[C@@H]1C[C@H](C(=O)Cn2ccc(C#N)n2)[C@@]2(C)CC[C@H]3[C@@H](CC[C@@H]4C[C@](C)(O)CC[C@@H]43)[C@H]12
Not met

Here is the next compound: C[C@@]1(O)CC[C@H]2[C@H](CC[C@@H]3[C@@H]2CC[C@@]2(C)[C@H]3[C@@H]3C[C@@H]3[C@@H]2C(=O)Cn2cc(C(F)(F)F)cn2)C1
Not met

Here is the next compound: C[C@@H]1C[C@H](C(=O)Cn2cc(C#N)c(Cl)n2)[C@@]2(C)CC[C@H]3[C@@H](CC[C@@H]4C[C@](C)(O)CC[C@@H]43)[C@H]12
Met

Here is the next compound: C[C@@]1(O)CC[C@H]2[C@H](CC[C@@H]3[C@@H]2CC[C@@]2(C)[C@H]3[C@H](C3CC3)C[C@@H]2C(=O)Cn2ccnn2)C1
Met

Here is the next compound: C[C@@]1(O)CC[C@H]2[C@H](CC[C@@H]3[C@@H]2CC[C@]2(C)C(C(=O)Cn4cc(C#N)cn4)C[C@@H](C4CC4)[C@@H]32)C1 (stereo partly drawn)
Not met

Here is the next compound: C[C@@]1(O)CC[C@H]2[C@H](CC[C@@H]3[C@@H]2CC[C@@]2(C)[C@H]3[C@@H]3C[C@@H]3[C@@H]2C(=O)Cn2ccc(C#N)n2)C1
Not met

====

METHOD_NOTES: Pharmacokinetic assay in Balb/c mice (plasma and brain tissue)
Assay type: in vivo
ASSAY_SETUP: mouse, po; brain tissue, 5 mg/kg p.o., male Balb/c mice; read-out: Area under curve AUC0-∞
The molecules listed here are annotated with their AUC(0-inf).
Numbers only; they are read as ng·h/mL.

>  <MOLECULE_SMILES>
C[C@@]1(O)CC[C@H]2[C@H](CC[C@@H]3[C@@H]2CC[C@@]2(C)[C@H]3[C@@H]3C[C@@H]3[C@@H]2C(=O)Cn2ccc(C(F)(F)F)n2)C1

>  <READOUT_NUMBER>
964

$$$$
>  <MOLECULE_SMILES>
C[C@@H]1C[C@H](C(=O)Cn2ccc(C#N)n2)[C@@]2(C)CC[C@H]3[C@@H](CC[C@@H]4C[C@](C)(O)CC[C@@H]43)[C@H]12

>  <READOUT_NUMBER>
2500

$$$$
>  <MOLECULE_SMILES>
C[C@@]1(O)CC[C@H]2[C@H](CC[C@@H]3[C@@H]2CC[C@@]2(C)[C@H]3[C@@H]3C[C@@H]3[C@@H]2C(=O)Cn2ccc(C#N)n2)C1

>  <READOUT_NUMBER>
722

$$$$
>  <MOLECULE_SMILES>
C[C@@H]1C[C@H](C(=O)Cn2cc(C#N)c(Cl)n2)[C@@]2(C)CC[C@H]3[C@@H](CC[C@@H]4C[C@](C)(O)CC[C@@H]43)[C@H]12

>  <READOUT_NUMBER>
3500

$$$$
>  <MOLECULE_SMILES>
C[C@@H]1C[C@H](C(=O)Cn2cc(C#N)cn2)[C@@]2(C)CC[C@H]3[C@@H](CC[C@@H]4C[C@](C)(O)CC[C@@H]43)[C@H]12

>  <READOUT_NUMBER>
4740

$$$$
>  <MOLECULE_SMILES>
CC[C@@H]1C[C@H](C(=O)Cn2nccn2)[C@@]2(C)CC[C@H]3[C@@H](CC[C@@H]4C[C@](C)(O)CC[C@@H]43)[C@H]12

>  <READOUT_NUMBER>
2250

$$$$
>  <MOLECULE_SMILES>
C[C@@H]1C[C@H](C(=O)Cn2cc(C(F)(F)F)cn2)[C@@]2(C)CC[C@H]3[C@@H](CC[C@@H]4C[C@](C)(O)CC[C@@H]43)[C@H]12

>  <READOUT_NUMBER>
2680

$$$$

In the following, a different molecule is considered.
Requested read-out: AUC(0-inf). Entry: C[C@@]1(O)CC[C@H]2[C@H](CC[C@@H]3[C@@H]2CC[C@@]2(C)[C@H]3[C@@H]3C[C@@H]3[C@@H]2C(=O)Cn2cc(C#N)cn2)C1
913

====

The compounds listed here are annotated with their half-life.
METHOD_NOTES: Pharmacokinetic assay in Balb/c mice (plasma and brain tissue)
Assay type: in vivo
ASSAY_SETUP: mouse, po; plasma, 5 mg/kg p.o., male Balb/c mice; read-out: Half-life t1/2 (converted)
Numbers only; they are read as h.

Solved entries (count: 3):
>  <MOLECULE_SMILES>
C[C@@H]1C[C@H](C(=O)Cn2cc(C#N)cn2)[C@@]2(C)CC[C@H]3[C@@H](CC[C@@H]4C[C@](C)(O)CC[C@@H]43)[C@H]12

>  <MEASUREMENT_UNITS>
h

>  <half-life>
2.5

$$$$
>  <MOLECULE_SMILES>
C[C@@H]1C[C@H](C(=O)Cn2cc(C(F)(F)F)cn2)[C@@]2(C)CC[C@H]3[C@@H](CC[C@@H]4C[C@](C)(O)CC[C@@H]43)[C@H]12

>  <MEASUREMENT_UNITS>
h

>  <half-life>
2.99

$$$$
>  <MOLECULE_SMILES>
C[C@@]1(O)CC[C@H]2[C@H](CC[C@@H]3[C@@H]2CC[C@@]2(C)[C@H]3[C@H](C3CC3)C[C@@H]2C(=O)Cn2nccn2)C1

>  <MEASUREMENT_UNITS>
h

>  <half-life>
1.4

$$$$

Requested read-out: half-life. Entry: C[C@@]1(O)CC[C@H]2[C@H](CC[C@@H]3[C@@H]2CC[C@@]2(C)[C@H]3[C@@H]3C[C@@H]3[C@@H]2C(=O)Cn2ccc(C(F)(F)F)n2)C1
3.19

Here is the next compound: C[C@@]1(O)CC[C@H]2[C@H](CC[C@@H]3[C@@H]2CC[C@@]2(C)[C@H]3[C@H](C3CC3)C[C@@H]2C(=O)Cn2ccc(C#N)n2)C1
2.79

Here is the next compound: C[C@@H]1C[C@H](C(=O)Cn2ncnn2)[C@@]2(C)CC[C@H]3[C@@H](CC[C@@H]4C[C@](C)(O)CC[C@@H]43)[C@H]12
2.58
